Measured % Inhibition, listed per entry.
tested on: Plasmodium falciparum; test: Confirmatory screen in NF54 pLDH assay, in single point, at 2uM, 72h; format: functional, Erythrocyte; conditions: timepoint 72 hour
About 410 (8.5%) of roughly 4,800 compounds showed an effect of 50% or more. Only a selection was taken, and strong results are over-represented in it overall.
Number in %, nothing else.

Examples with answers:
CC1CCC(N(C)C(=O)c2cc(S(=O)(=O)N3CCCCC3)ccc2N2CCCC2)CC1 (configuration not stated) ... -10
NCc1cccc(C(=O)N2CCc3cc4ccc3[C@@H]2c2cccc(c2)OCCCNC(=O)c2cc(ccc2O)O4)c1 ... 98
Cc1ccc(NCc2ccc(OCc3cccc4ccccc34)c(Br)c2)cc1 ... 11
CC(C)C(=O)N1CC[C@H](CC(=O)NCc2ccncc2)C1 ... 5
C[C@@H](C(=O)Nc1ncc[nH]1)c1ccc2c(c1)[nH]c1ccc(Cl)cc12 ... 16
COc1c(Cl)cc(Cl)cc1C#N ... -17
CCC(CC)C(=O)c1c[nH]c(C(N)=O)c1 ... -17
CCc1ccc(CS(=O)(=O)NC(=O)c2cn3ccnc3s2)cc1 ... 4

Entry O=C1NCCCOc2cccc(c2)[C@H]2c3ccc(cc3CCN2C(=O)CCN2CCOCC2)Oc2ccc(O)c1c2 , % Inhibition reported as 50

COc1ccc(Cl)cc1S(=O)(=O)c1cnc(N2CCOCC2)nc1N yielded % Inhibition of 10
